assay: in vivo; conditions: mouse

Compound string	ED50 at 60 min (mg/kg)
Cc1ccc(Cl)c(OC[C@H](O)CNC(C)(C)C)c1	166
